Data credit: patent EP4471049A1

- experiment: Peptide stability in simulated intestinal fluid (SIF)
- Type: in vitro ADME
- condition: 4 h, 37 °C, pH 6.8, porcine pancreatin 10 g/L, 10 µM
Returns: string. Value is 1 if measured SIF (% remaining 4 h) is below 40%, and 0 if it is greater than or equal to it.

INSERT INTO assay_data (compound, label_class) VALUES
  ('CC(C)C[C@@H]1NC(=O)[C@H](Cc2c[nH]c3ccccc23)NC(=O)[C@H](Cc2c[nH]c3ccccc23)NC(=O)[C@@H]2CSCC(=O)CSC[C@H](NC(=O)[C@H]([C@@H](C)O)NC(=O)[C@@H](NC(=O)CN)CSCC(=O)CSC[C@@H](C(=O)N[C@@H](CO)C(N)=O)NC1=O)C(=O)N[C@@H](Cc1c[nH]c3ccccc13)C(=O)N[C@@H](CCC(=O)O)C(=O)N2 (single isomer, unassigned) [I1 (isomer 3), H-GC(1a)TC(2a)WEC(2a)WWLC(1a)S-[NH2], reference compound]', 1),
  ('CC(C)C[C@]1(C)NC(=O)[C@H](Cc2ccc3ccccc3c2)NC(=O)[C@H](Cc2ccc(OCCN)cc2)NC(=O)[C@@H]2CCNC(=O)CC[C@H](NC(=O)[C@H](CO)NC(=O)Cc3ccc(cc3)CNC(=O)CC[C@@H](C(=O)N[C@@H](CCN)C(=O)N[C@H](Cc3c[nH]cn3)C(N)=O)NC1=O)C(=O)N[C@@H](Cc1c[nH]c3ccccc13)C(=O)N[C@@H](CCC(N)=O)C(=O)N2', 0),
  ('CC(C)C[C@]1(C)NC(=O)[C@H](Cc2ccc3ccccc3c2)NC(=O)[C@H](Cc2ccc(OCCN)cc2)NC(=O)[C@@H]2CCNC(=O)CC[C@H](NC(=O)[C@H](CO)NC(=O)Cc3ccc(cc3)CNC(=O)CC[C@@H](C(=O)N[C@@H](CCN)C(=O)NCCc3cccnc3)NC1=O)C(=O)N[C@@H](Cc1c[nH]c3ccccc13)C(=O)N[C@@H](CCC(N)=O)C(=O)N2', 0),
  ('CC(C)C[C@@H]1NC(=O)[C@H](Cc2c[nH]c3ccccc23)NC(=O)[C@H](Cc2c[nH]c3ccccc23)NC(=O)[C@@H]2CSCC(=O)CSC[C@H](NC(=O)[C@H](CO)NC(=O)[C@@H](NC(=O)[C@@H](N)CC(=O)O)CSCC(=O)CSC[C@@H](C(=O)N[C@@H](CCCNC(=N)N)C(N)=O)NC1=O)C(=O)N[C@@H](Cc1c[nH]c3ccccc13)C(=O)N[C@@H](CCC(N)=O)C(=O)N2 (single isomer, unassigned) [I3 (isomer 3), H-DC(1a)SC(2a)WQC(2a)WWLC(1a)R-[NH2], reference compound]', 1),
  ('CC(C)C[C@]1(C)NC(=O)[C@H](Cc2ccc3ccccc3c2)NC(=O)[C@H](Cc2ccc(OCCN)cc2)NC(=O)[C@@H]2CCNC(=O)CC[C@H](NC(=O)[C@H](CO)NC(=O)Cc3ccc(cc3)CNC(=O)CC[C@@H](C(=O)N[C@@H](CCN)C(=O)NCCCCc3cccnc3)NC1=O)C(=O)N[C@@H](Cc1c[nH]c3ccccc13)C(=O)N[C@@H](CCC(N)=O)C(=O)N2', 0);
